quantity: melting point

Worked cases, answers included:
> print(dat)
                                   compound          value
1  NC(=O)N1C(=O)C(C(=O)c2ccccc2)c2ncc(Cl)cc21 (stereo unspecified)         260 °C
2        Cc1nn(C)c(CBr)c1Oc1cc(Cl)cc(C#N)c1    76 to 78 °C
3    Cc1noc(NS(=O)(=O)c2ccccc2-c2ccccc2)c1C  154 to 155 °C
4  Cc1nc(N2CCC(NCc3ccc(F)cc3)C2=O)sc1C(=O)NCc1ccc(F)cc1 (stereo unspecified)  123 to 124 °C
5    Cc1ccc(C)c(OCc2ccccc2C(C#N)=NOC(F)F)c1  104 to 108 °C

Attention now turns to another entry.
For this compound ( Cc1cc(F)cc2c1CC/C2=C\C(N)=O ), measured melting point is 178 to 180 °C
